Below, each of the molecules is paired with its reported pIC50 value.
Target: Human Cav3.1 calcium channel (Homo sapiens)
Construct: expressed in transfected cells; host or cells: HEK-293 natClytin/TASK1+Cav3.1 cell line
Assay: Human Cav3.1 calcium channel patch clamp assay (SyncroPatch 384PE; single point and IC50, voltage dependent block)
Assay type: cell-based
Conditions: voltage dependent block (VDB); HEK-293 natClytin/TASK1+Cav3.1 cell line; read-out: Cav3.1 IC50
For clarity, pIC50 is expressed as the negative log10 of concentration in mol/L.

>  <molecule>
CC(C)(C)NC(=O)CN1C2CC1CN(c1nc3c(Cl)cc(F)cc3[nH]1)C2 [Compound 209]

>  <measurement target>
Human Cav3.1 calcium channel (Homo sapiens)

>  <experimental result>
5.29

$$$$
>  <molecule>
CC(C)(C)NC(=O)CN1C[C@@H]2C[C@H]1CN2CC(=O)Nc1cc(Cl)cc(OC(F)F)c1 [Compound 294]

>  <measurement target>
Human Cav3.1 calcium channel (Homo sapiens)

>  <experimental result>
7.23

$$$$
>  <molecule>
CC(C)(C)NC(=O)CN1C[C@H]2COC[C@@H](C1)[C@@H]2CNC(=O)c1cc(F)cc(Cl)c1 [Compound 369]

>  <measurement target>
Human Cav3.1 calcium channel (Homo sapiens)

>  <experimental result>
6.30

$$$$
>  <molecule>
CC(C)(C)NC(=O)CN1C2CC1CN(CC(=O)NC13CC4CC(CC(Cl)(C4)C1)C3)C2 [Compound 345]

>  <measurement target>
Human Cav3.1 calcium channel (Homo sapiens)

>  <experimental result>
5.93

$$$$
>  <molecule>
O=C(CN1CC2CC1CN2CCNC(=O)C1(C(F)(F)F)CCC1)Nc1ccc(F)c(Cl)c1 (centres unmarked) [Compound 19]

>  <measurement target>
Human Cav3.1 calcium channel (Homo sapiens)

>  <experimental result>
6.60

$$$$

// Input: COCC1CN(CC(=O)NC(C)(C)C)CCN1CC(=O)Nc1cc(F)cc(Cl)c1 (centres unmarked) [Compound 42] . Output its pIC50 only.
6.20

Identify measured pIC50 corresponding to O=C(CN1CC2CC(C1)N2CC(=O)NC1(C(F)(F)F)CC1)Nc1ccc(F)c(OC(F)(F)F)c1 [Compound 243]
6.86

* * *

Target: Human Cav3.1 calcium channel (Homo sapiens, UniProt O43497)
Construct: expressed in transfected cells; host or cells: HEK-293 natClytin/TASK1+Cav3.1 cell line
Sequence (O43497 whole entry): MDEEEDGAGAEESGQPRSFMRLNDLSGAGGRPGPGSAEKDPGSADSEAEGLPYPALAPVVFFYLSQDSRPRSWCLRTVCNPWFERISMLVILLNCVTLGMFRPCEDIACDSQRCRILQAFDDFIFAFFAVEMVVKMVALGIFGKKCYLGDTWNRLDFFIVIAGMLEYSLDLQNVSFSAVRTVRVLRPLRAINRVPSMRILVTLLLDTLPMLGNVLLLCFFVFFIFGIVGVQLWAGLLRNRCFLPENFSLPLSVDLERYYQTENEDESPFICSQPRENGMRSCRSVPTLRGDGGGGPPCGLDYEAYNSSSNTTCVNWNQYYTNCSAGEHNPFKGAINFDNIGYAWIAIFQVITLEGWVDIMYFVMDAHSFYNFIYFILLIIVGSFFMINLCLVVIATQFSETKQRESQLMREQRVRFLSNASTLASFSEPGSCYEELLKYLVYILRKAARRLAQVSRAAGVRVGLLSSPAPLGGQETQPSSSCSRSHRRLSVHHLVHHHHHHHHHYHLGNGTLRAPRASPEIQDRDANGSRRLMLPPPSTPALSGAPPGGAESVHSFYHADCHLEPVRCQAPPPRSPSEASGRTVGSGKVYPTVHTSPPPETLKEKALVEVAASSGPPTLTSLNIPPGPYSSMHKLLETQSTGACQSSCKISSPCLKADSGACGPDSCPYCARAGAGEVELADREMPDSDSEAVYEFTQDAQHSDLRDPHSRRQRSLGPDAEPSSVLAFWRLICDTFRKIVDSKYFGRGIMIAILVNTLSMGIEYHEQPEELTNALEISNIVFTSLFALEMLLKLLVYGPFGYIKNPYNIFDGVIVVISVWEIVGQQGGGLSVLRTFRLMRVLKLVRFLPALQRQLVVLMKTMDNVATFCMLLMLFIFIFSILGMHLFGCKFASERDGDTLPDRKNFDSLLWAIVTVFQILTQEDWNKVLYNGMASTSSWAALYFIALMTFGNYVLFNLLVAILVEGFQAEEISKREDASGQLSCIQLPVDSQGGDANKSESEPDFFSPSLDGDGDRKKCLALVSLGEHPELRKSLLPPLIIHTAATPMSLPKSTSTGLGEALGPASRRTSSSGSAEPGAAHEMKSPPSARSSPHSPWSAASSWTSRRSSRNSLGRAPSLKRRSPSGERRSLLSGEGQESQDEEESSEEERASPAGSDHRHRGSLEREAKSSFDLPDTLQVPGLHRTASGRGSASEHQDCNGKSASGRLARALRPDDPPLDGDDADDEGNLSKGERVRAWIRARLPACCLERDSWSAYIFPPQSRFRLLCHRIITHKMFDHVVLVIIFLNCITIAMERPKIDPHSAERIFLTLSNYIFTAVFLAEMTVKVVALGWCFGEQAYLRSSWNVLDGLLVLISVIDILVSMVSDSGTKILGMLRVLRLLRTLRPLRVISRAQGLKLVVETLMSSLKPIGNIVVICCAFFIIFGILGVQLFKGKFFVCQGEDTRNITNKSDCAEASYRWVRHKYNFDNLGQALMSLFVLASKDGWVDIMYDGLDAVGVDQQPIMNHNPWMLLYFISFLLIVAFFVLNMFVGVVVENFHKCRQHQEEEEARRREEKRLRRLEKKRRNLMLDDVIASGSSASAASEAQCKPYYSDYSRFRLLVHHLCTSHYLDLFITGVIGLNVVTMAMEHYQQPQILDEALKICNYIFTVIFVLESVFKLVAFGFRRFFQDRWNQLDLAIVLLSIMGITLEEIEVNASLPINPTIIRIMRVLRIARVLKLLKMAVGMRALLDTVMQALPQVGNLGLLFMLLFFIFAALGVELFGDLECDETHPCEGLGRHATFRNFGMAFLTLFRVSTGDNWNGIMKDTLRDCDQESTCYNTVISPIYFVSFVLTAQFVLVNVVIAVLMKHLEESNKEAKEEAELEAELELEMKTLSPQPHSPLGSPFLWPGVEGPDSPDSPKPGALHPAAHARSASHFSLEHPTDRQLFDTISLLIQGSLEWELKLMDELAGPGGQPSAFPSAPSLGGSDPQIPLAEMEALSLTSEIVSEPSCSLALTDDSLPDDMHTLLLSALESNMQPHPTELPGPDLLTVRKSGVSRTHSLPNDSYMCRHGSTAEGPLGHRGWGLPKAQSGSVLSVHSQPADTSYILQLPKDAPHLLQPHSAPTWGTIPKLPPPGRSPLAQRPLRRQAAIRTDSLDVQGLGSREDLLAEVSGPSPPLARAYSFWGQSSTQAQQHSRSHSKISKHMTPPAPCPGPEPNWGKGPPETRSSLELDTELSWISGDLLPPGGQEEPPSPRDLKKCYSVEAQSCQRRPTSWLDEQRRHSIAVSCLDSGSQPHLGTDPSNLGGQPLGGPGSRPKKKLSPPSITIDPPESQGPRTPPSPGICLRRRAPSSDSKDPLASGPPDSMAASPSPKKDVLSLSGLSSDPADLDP
Assay: Human Cav3.1 calcium channel patch clamp assay (SyncroPatch 384PE; single point and IC50, voltage dependent block)
Type: cell-based
measure: pIC50
Keep it numeric: pIC50 is minus log10 of the concentration in mol/L.

Worked examples follow.
>  <molecule>
CC(C)(NC(=O)CN1C2CC1CN(Cc1nc3c(Cl)ccc(F)c3[nH]1)C2)C(F)(F)F [Compound 181]

>  <pIC50>
7.37

$$$$
>  <molecule>
COc1ccc(F)c2[nH]c(CN3CC4CC(C3)N4CC(=O)NC(C)(C)C(F)(F)F)nc12 [Compound 183]

>  <pIC50>
7.06

$$$$
>  <molecule>
CC(c1nc2c(Cl)cc(F)cc2[nH]1)N1CC2CCC(C1)N2CC(=O)NC(C)(C)C (stereo not shown) [Compound 201]

>  <pIC50>
7.07

$$$$
>  <molecule>
O=C(CN1C2CC1CN(Cc1nc3c(Cl)cc(F)cc3[nH]1)C2)NC1(C(F)(F)F)COC1 [Compound 182]

>  <pIC50>
7.19

$$$$

# ---- query molecule ----
Note pIC50 for the molecule shown: Cc1ccc(F)c2[nH]c(CN3CC4CC(C3)N4CC(=O)NC(C)(C)C(F)(F)F)nc12 [Compound 144]
7.13
